- targetOrSystem: FAD-linked sulfhydryl oxidase ALR (Homo sapiens, UniProt P55789)
- Sequence (P55789 whole entry): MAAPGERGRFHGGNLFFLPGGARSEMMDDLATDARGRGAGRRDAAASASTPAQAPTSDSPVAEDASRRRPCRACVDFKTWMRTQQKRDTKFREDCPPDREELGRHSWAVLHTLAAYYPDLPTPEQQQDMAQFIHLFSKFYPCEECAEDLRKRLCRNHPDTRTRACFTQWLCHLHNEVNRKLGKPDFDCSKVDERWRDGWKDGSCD
- assayMethodText: inhibitors of human ALR sulfhydryl oxidase, dose response, biochemical, H2O2 detection, luminescence, cherry-pick (AID 493248)
The source made the active and inactive calls.
# AC50 listing for each entry below
quantity: AC50

>>> datavalue("COc1ccc(C2NC(=O)CS2)cc1OC (stereo unspecified)")
"93 nM (active)"
>>> datavalue("CC1(c2ccccc2)NC(=O)N(CC(=O)Nc2ccc(S(=O)(=O)Nc3ncccn3)cc2)C1=O (stereo unspecified)")
"675 nM (active)"
>>> datavalue("Sc1n[nH]c(-c2cc(Cl)cc(Cl)c2)n1")
"1720 nM (active)"
>>> datavalue("CC(=O)NC(C)C(c1cccs1)N1CCN(c2ccccc2)CC1 (stereo unspecified)")
"273 nM (active)"
>>> datavalue("CC(=O)c1ccc(N/N=C2/CCCNC2=O)cc1")
"3670 nM (active)"
>>> datavalue("O=C1CCC(C(=O)Nc2ccccc2N2CCCC2)=NN1")
"3700 nM (active)"

----------
- assayMethodText: A549 cell cytotoxicity, dose response, cytotoxicity control, plate reader, cherry-pick, antagonist series (AID 743412)
- Format: functional, cell-based
The source made the active and inactive calls.
Possible outcomes: active, inactive

>>> cat("O=C(Nc1cccc(Cl)c1)Nc1nnc(-c2ccncc2)s1")
"active"
>>> cat("CCCc1nc(SCC(=O)N2CCC(Cc3ccccc3)CC2)c2c(=O)n(C)c(=O)n(C)c2n1")
"inactive"
>>> cat("CC(C)OC(=O)c1ccc(NCc2cc(O)ccc2O)cc1Cl")
"active"
>>> cat("C[C@H](CO)N1C[C@H](C)[C@H](CN(C)C(=O)Nc2ccc(F)cc2)OCCCC[C@H](C)Oc2ccc(NC(=O)Nc3ccc(F)cc3)cc2C1=O")
"inactive"

----------
- targetOrSystem: UniProt:Q92731
- Sequence (Q92731 whole entry): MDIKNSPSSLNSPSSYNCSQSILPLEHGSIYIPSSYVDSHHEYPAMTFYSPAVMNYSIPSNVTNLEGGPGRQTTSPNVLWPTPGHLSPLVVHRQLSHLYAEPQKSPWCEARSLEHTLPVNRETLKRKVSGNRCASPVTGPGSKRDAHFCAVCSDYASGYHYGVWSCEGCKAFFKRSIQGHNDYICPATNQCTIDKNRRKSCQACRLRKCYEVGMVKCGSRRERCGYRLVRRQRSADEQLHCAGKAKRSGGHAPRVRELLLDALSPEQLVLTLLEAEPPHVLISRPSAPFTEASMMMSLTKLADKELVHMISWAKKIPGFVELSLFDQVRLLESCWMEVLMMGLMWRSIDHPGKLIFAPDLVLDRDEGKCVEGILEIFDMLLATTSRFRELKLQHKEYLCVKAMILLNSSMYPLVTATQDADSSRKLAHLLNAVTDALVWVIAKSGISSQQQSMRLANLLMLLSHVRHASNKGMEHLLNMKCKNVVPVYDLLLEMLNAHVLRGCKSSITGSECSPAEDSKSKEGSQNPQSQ
- assayMethodText: ERβ–SRC-3 coactivator interaction inhibitors, confirmation, orthogonal assay, biochemical, ELISA, streptavidin-HRP readout (AID 1060)
# IC50 listing for each entry below
quantity: IC50

>>> datavalue("Cc1cc(=O)oc2c(CN3CCC(C)CC3)c(O)c(Cl)cc12")
"5230 nM (not active)"
>>> datavalue("O=C(Cc1cccs1)Nc1ccc(S(=O)(=O)N2CCCCC2)cc1")
"< 77000 nM (not active)"
>>> datavalue("Cc1ccccc1NC(=O)CSc1nnc(-c2ccco2)c(-c2ccco2)n1")
"1980 nM (not active)"
>>> datavalue("CCN1CCN(c2ccc(NC(=O)c3cccc4ncccc34)cc2)CC1")
"121 nM (not active)"
>>> datavalue("COc1ccc(C(=O)Nc2nc3c(s2)Cc2cc(OC)ccc2-3)cc1")
"< 23 nM (not active)"

----------
- targetOrSystem: Peroxisome proliferator-activated receptor gamma/Nuclear receptor coactivator 1 (Homo sapiens, UniProt P37231);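 note: agonist potency as compounds enhance coactivator SRC-1 recruitment to PPARgamma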
- Sequence (P37231 whole entry): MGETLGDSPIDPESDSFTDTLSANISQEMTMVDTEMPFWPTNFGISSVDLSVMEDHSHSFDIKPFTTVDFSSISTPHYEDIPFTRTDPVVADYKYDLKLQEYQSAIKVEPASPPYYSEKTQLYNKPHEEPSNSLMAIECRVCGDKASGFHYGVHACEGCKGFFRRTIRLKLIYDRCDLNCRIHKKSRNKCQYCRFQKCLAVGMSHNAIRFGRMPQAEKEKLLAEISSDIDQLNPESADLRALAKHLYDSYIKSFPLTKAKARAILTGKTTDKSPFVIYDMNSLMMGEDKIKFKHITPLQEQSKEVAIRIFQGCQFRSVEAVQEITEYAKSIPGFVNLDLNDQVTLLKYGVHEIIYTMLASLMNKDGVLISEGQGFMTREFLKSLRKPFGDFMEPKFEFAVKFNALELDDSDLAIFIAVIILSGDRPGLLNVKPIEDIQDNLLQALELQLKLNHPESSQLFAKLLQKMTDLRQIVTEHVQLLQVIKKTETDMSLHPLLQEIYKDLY
- Sequence (Q15788 whole entry, further chain): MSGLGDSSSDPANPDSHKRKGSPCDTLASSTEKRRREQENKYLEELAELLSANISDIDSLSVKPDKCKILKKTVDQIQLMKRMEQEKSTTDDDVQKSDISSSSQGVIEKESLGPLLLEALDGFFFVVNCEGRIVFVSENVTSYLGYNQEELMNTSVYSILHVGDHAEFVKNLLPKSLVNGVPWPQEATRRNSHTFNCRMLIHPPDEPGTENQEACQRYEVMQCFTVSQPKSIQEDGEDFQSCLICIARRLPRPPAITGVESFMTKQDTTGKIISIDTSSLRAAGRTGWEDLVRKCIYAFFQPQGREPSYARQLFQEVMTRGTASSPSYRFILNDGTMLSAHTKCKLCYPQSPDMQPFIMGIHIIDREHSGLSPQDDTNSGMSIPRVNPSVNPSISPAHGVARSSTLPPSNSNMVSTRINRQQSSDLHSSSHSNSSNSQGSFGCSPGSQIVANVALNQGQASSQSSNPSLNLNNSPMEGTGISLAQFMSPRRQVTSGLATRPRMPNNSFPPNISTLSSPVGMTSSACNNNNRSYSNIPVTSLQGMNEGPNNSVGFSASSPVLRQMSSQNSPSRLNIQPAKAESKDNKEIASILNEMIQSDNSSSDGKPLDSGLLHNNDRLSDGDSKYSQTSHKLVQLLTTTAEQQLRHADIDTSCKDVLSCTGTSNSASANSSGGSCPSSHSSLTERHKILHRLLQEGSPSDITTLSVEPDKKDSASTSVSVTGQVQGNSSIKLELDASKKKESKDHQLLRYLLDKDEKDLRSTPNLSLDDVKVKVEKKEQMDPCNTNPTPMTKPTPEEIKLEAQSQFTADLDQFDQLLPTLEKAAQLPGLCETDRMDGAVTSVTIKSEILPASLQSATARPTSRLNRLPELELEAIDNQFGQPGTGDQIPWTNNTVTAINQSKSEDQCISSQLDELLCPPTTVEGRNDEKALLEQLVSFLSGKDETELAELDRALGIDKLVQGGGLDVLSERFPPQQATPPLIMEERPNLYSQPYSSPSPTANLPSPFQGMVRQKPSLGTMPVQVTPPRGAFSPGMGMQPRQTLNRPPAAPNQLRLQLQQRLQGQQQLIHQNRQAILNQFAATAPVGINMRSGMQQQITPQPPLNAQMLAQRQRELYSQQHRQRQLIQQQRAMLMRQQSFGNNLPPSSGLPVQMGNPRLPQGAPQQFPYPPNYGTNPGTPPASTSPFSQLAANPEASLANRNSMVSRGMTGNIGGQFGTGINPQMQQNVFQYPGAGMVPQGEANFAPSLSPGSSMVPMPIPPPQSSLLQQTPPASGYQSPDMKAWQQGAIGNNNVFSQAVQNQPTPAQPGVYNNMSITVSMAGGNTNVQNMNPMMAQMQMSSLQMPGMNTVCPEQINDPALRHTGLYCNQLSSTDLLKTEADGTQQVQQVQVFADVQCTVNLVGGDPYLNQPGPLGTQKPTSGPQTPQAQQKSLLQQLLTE
- Assay type: functional
# EC50 listing for each entry below
quantity: EC50

>>> datavalue("CCS(=O)(=O)N1CCN(C2CCC(c3ccccc3)CC2)CC1 (stereo not drawn)")
"> 79.4 µM (not active)"
>>> datavalue("COc1cccc(NC(=S)NC(=O)c2c(Cl)c(C)nn2C)c1")
"> 79.4 µM (not active)"
>>> datavalue("CC1C(Br)C(=O)NC(=O)N1Cc1ccccc1 (stereo not drawn)")
"> 79.4 µM (not active)"
>>> datavalue("Cc1nnc(SCc2ccccc2)n1N")
"> 79.4 µM (not active)"
>>> datavalue("COc1ccc2nc(C)cc(SCC(=O)Nc3c(C)cc(C)cc3C)c2c1")
"55.2 µM (not active)"
>>> datavalue("Cc1cccc(N(CC(=O)N2CCN(c3ccc(F)cc3)CC2)S(C)(=O)=O)c1C")
"> 79.4 µM (not active)"
>>> datavalue("CC(=O)N1CCN(c2ccc(NC(=O)/C=C/c3ccccc3)cc2)CC1")
"> 79.4 µM (not active)"
>>> datavalue("CSc1cc(-c2ccc(Cl)cc2)n(Cc2ccccc2)c(=O)c1C#N")
"44.7 µM (not active)"
